Provenance of the data: patent US8470837B2

Target: MEK1 (Homo sapiens, UniProt Q02750, DEL30-49/S218E/S222D)
Sequence (Q02750 with tags, fused parts or gaps DEL30-49/S218E/S222D): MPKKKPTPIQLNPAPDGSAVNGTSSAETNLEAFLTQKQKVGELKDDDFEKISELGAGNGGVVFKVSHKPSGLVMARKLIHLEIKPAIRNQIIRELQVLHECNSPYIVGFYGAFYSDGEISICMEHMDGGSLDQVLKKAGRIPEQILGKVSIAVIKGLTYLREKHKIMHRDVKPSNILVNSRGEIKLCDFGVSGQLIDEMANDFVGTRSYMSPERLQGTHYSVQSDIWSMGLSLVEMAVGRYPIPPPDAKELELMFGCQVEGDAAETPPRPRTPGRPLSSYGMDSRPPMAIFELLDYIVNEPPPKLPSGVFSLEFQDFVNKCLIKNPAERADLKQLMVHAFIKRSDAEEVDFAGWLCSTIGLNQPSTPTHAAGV
Experiment: MEK1 inhibition, fluorescence polarization assay with IMAP beads (ERK1 / FI-Erktide coupled)
readoutType: IC50

{"columns": ["molecule", "reportedMeasurement"],
 "data": [
  ["CC(O)Cn1cnc2c(c(Nc3ccc(I)cc3F)c(Cl)c(=O)n2C)c1=O (centres unmarked) [Example 40]", "5 to 15 nM"],
  ["Cc1c(Nc2ccc(I)cc2F)c2c(=O)n(CCO)cnc2n(C)c1=O [Example 14]", "≤ 5 nM"],
  ["CN(C)CCn1cnc2c(c(Nc3ccc(I)cc3F)cc(=O)n2C)c1=O [Example 37]", "≥ 16 nM"],
  ["Cc1c(Nc2ccc(Br)cc2F)c2c(=O)n(C[C@@H](O)CO)cnc2n(C)c1=O [Example 10]", "≥ 16 nM"],
  ["Cn1c(=O)c(F)c(Nc2ccc(I)cc2F)c2c(=O)n(C[C@H](O)CO)cnc21 [Example 19]", "≤ 5 nM"],
  ["Cn1c(=O)cc(Nc2ccc(I)cc2F)c2c(=O)n(Cc3ccccc3)cnc21 [Example 42]", "≥ 16 nM"],
  ["Cn1c(=O)c(Cl)c(Nc2ccc(I)cc2F)c2c(=O)n(C[C@H](O)CO)cnc21 [Example 7]", "≤ 5 nM"],
  ["Cc1c(Nc2ccc(Br)cc2F)c2c(=O)n(C[C@H](O)CO)cnc2n(C)c1=O [Example 9]", "≥ 16 nM"],
  ["Cn1c(=O)c(Cl)c(Nc2ccc(I)cc2F)c2c(=O)n(CCO)cnc21 [Example 30]", "≤ 5 nM"],
  ["Cn1c(=O)c(F)c(Nc2ccc(I)cc2F)c2c(=O)n(C[C@@H](O)CO)cnc21 [Example 18]", "≤ 5 nM"],
  ["Cn1c(=O)c(F)c(Nc2ccc(NS(C)(=O)=O)cc2F)c2c(=O)n(C[C@@H](O)CO)cnc21 [Example 23]", "≥ 16 nM"]
]}
